system-under-test: Muscarinic acetylcholine receptor M1 (Homo sapiens)
Sequence (whole entry): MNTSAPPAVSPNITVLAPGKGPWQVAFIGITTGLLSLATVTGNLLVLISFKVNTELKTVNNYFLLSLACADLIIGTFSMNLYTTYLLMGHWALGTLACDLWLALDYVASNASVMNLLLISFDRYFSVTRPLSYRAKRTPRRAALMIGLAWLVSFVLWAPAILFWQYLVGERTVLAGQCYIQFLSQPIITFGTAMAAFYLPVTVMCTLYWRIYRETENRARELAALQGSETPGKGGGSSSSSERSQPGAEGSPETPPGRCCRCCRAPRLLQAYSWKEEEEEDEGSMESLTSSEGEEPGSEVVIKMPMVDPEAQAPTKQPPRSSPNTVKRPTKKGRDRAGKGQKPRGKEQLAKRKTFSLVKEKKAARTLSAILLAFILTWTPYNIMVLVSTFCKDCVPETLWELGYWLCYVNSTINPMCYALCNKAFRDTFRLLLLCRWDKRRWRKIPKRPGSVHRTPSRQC
assay-comment: Displacement of [3H]pirenzepine from human recombinant M1 receptor expressed in CHO cells at 1 uM
Format: cell-based
measurement-type: inhibition (%)

{"mol": "O=S(=O)(NCCCN1CCC(c2noc3cc(F)ccc23)CC1)c1ccc2cc(Cl)ccc2c1", "quantitative-result": -7}
{"mol": "O=S(=O)(NCCCCN1CCN(c2noc3ccccc23)CC1)c1cnc2ccccn12", "quantitative-result": 0}
{"mol": "O=S(=O)(NCCCCN1CCC(c2noc3cc(F)ccc23)CC1)c1ccc2ccccc2c1", "quantitative-result": 0}
{"mol": "O=S(=O)(NCCCCN1CCN(c2nsc3ccccc23)CC1)c1cc2ccc(Cl)cc2s1", "quantitative-result": 2}
{"mol": "O=S(=O)(NCCCCN1CCN(c2noc3ccccc23)CC1)c1ccc(F)c(Cl)c1", "quantitative-result": 6}
{"mol": "O=S(=O)(NCCCN1CCC(c2noc3cc(F)ccc23)CC1)c1ccc2ccccc2c1", "quantitative-result": -7}
{"mol": "O=S(=O)(NCCCN1CCC(c2noc3cc(F)ccc23)CC1)c1cc2ccccc2s1", "quantitative-result": 13}
{"mol": "Cc1c(S(=O)(=O)NCCCCN2CCN(c3nsc4ccccc34)CC2)sc2ccc(F)cc12", "quantitative-result": 10}
{"mol": "O=S(=O)(NCCCN1CCN(c2noc3ccccc23)CC1)c1ccc2cc(Cl)ccc2c1", "quantitative-result": 3}
{"mol": "O=S(=O)(NCCCN1CCC(c2noc3cc(F)ccc23)CC1)c1ccc(Cl)c(Cl)c1", "quantitative-result": -3}
{"mol": "O=S(=O)(NCCCCN1CCN(c2noc3ccccc23)CC1)c1ccc2ccccc2c1", "quantitative-result": -3}
{"mol": "O=S(=O)(NCCCCN1CCC(c2noc3cc(F)ccc23)CC1)c1ccc(Cl)c(Cl)c1", "quantitative-result": 27}
{"mol": "O=S(=O)(NCCCCN1CCC(c2noc3cc(F)ccc23)CC1)c1cc2ccc(Cl)cc2s1", "quantitative-result": 23}
{"mol": "O=S(=O)(NCCCN1CCN(c2nsc3ccccc23)CC1)c1cc2ccc(Cl)cc2s1", "quantitative-result": -6}
{"mol": "O=S(=O)(NCCCN1CCN(c2noc3ccccc23)CC1)c1ccc(OC(F)(F)F)cc1", "quantitative-result": 3}
{"mol": "O=S(=O)(NCCCN1CCN(c2noc3ccccc23)CC1)c1cc2ccc(Cl)cc2s1", "quantitative-result": 6}
{"mol": "O=S(=O)(NCCCN1CCC(c2noc3cc(F)ccc23)CC1)c1cccc2scnc12", "quantitative-result": 1}

----------
inhibition at 1 µM: recorded values
system-under-test: hERG (KCNH2) potassium channel (Homo sapiens)
Sequence (Q12809 whole entry): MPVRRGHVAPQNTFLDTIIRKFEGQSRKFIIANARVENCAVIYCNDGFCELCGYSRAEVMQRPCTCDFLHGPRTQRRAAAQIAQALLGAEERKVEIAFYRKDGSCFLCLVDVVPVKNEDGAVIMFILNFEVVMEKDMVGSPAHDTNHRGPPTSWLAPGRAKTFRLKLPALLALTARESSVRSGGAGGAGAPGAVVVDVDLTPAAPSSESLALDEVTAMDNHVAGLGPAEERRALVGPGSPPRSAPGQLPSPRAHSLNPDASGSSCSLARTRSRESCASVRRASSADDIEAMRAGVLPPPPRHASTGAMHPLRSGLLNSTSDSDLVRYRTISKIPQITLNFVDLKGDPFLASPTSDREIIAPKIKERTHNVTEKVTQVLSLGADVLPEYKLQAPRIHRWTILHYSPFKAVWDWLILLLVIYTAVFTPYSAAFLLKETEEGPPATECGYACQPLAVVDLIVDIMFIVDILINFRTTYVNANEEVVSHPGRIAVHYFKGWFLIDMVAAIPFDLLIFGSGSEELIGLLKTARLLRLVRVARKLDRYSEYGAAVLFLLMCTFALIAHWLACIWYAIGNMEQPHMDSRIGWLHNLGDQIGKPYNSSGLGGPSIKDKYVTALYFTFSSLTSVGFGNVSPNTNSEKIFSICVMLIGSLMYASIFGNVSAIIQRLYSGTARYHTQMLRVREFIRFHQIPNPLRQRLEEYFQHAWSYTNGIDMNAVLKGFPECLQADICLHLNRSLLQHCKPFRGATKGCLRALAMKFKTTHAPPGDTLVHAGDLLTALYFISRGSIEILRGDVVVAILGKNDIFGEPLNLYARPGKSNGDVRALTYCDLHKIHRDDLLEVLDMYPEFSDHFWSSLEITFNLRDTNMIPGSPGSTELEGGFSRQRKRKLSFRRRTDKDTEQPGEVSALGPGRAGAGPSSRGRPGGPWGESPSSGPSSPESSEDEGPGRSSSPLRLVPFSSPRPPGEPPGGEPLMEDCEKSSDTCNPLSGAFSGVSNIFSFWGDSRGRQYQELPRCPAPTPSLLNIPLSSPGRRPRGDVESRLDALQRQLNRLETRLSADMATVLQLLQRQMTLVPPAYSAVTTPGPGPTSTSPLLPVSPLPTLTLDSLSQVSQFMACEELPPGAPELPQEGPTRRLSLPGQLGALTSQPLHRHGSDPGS
assay-comment: in vitro
condition-notes: CHO cells expressing human cloned ERG

{"mol": "O=S(=O)(NCCCN1CCN(c2nsc3ccccc23)CC1)c1cccc2scnc12", "inhibition at 1 µM": "16%"}
{"mol": "O=S(=O)(NCCN1CCN(c2nsc3ccccc23)CC1)c1ccc2ccccc2c1", "inhibition at 1 µM": "0%"}
{"mol": "O=S(=O)(NCCCN1CCC(c2noc3cc(F)ccc23)CC1)c1cc2ccc(Cl)cc2s1", "inhibition at 1 µM": "20%"}
{"mol": "O=S(=O)(NCCCN1CCC(c2noc3cc(F)ccc23)CC1)c1cccc2scnc12", "inhibition at 1 µM": "51%"}
{"mol": "Cc1c(S(=O)(=O)NCCCCN2CCN(c3nsc4ccccc34)CC2)sc2ccc(F)cc12", "inhibition at 1 µM": "5%"}
{"mol": "O=S(=O)(NCCCN1CCN(c2noc3ccccc23)CC1)c1ccc(Cl)c(Cl)c1", "inhibition at 1 µM": "27%"}
{"mol": "O=S(=O)(NCCCCN1CCC(c2noc3cc(F)ccc23)CC1)c1cccc2scnc12", "inhibition at 1 µM": "69%"}
{"mol": "O=S(=O)(NCCCN1CCN(c2nsc3ccccc23)CC1)c1cnc2ccccn12", "inhibition at 1 µM": "6%"}
{"mol": "Cc1cccc(S(=O)(=O)NCCN2CCC(c3noc4cc(F)ccc34)CC2)c1", "inhibition at 1 µM": "42%"}
{"mol": "O=S(=O)(NCCCN1CCN(c2nsc3ccccc23)CC1)c1ccc2cc(Cl)ccc2c1", "inhibition at 1 µM": "7%"}
{"mol": "O=S(=O)(NCCCCN1CCN(c2nsc3ccccc23)CC1)c1cccc2scnc12", "inhibition at 1 µM": "34%"}

----------
system-under-test: D(2) dopamine receptor (Homo sapiens, UniProt P14416)
Sequence (P14416 whole entry): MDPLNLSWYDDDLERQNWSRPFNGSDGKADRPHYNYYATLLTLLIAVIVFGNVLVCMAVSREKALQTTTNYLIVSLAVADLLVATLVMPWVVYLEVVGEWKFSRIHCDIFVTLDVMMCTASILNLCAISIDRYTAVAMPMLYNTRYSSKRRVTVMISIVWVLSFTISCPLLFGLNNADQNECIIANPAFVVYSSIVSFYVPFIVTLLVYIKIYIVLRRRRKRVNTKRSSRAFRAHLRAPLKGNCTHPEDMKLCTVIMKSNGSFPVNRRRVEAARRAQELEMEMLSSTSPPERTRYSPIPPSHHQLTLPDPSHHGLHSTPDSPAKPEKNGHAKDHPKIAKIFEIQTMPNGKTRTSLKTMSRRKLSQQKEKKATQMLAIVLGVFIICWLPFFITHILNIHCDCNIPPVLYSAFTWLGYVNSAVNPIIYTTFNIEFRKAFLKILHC
assay-comment: biochemical
Entries annotated with measured Ki

{"mol": "O=S(=O)(NCCCCN1CCN(c2nsc3ccccc23)CC1)c1ccc(F)c(Cl)c1", "unit-annotation": "nM", "value-modifier": "=", "Ki": 39}
{"mol": "O=S(=O)(NCCCCN1CCN(c2noc3ccccc23)CC1)c1cnc2ccccn12", "unit-annotation": "nM", "value-modifier": "=", "Ki": 100}
{"mol": "O=S(=O)(NCCCCN1CCN(c2noc3ccccc23)CC1)c1cccs1", "unit-annotation": "nM", "value-modifier": "=", "Ki": 5.3}
{"mol": "O=S(=O)(NCCCN1CCC(c2noc3cc(F)ccc23)CC1)c1ccc2ccccc2c1", "unit-annotation": "nM", "value-modifier": "=", "Ki": 1}
{"mol": "Cc1cccc(S(=O)(=O)NCCN2CCC(c3noc4cc(F)ccc34)CC2)c1", "unit-annotation": "nM", "value-modifier": "=", "Ki": 20}
{"mol": "Cc1c(S(=O)(=O)NCCCN2CCN(c3nsc4ccccc34)CC2)sc2ccc(F)cc12", "unit-annotation": "nM", "value-modifier": "=", "Ki": 8.3}
{"mol": "Cc1cccc(S(=O)(=O)NCCN2CCN(c3nsc4ccccc34)CC2)c1", "unit-annotation": "nM", "value-modifier": "=", "Ki": 43}
{"mol": "O=S(=O)(NCCCN1CCN(c2nsc3ccccc23)CC1)c1cccc2scnc12", "unit-annotation": "nM", "value-modifier": "=", "Ki": 27}
{"mol": "O=S(=O)(NCCCN1CCC(c2noc3cc(F)ccc23)CC1)c1ccc(OC(F)(F)F)cc1", "unit-annotation": "nM", "value-modifier": "=", "Ki": 33}
{"mol": "O=S(=O)(NCCCN1CCC(c2noc3cc(F)ccc23)CC1)c1cccc2scnc12", "unit-annotation": "nM", "value-modifier": ">", "Ki": 1000}
{"mol": "O=S(=O)(NCCCN1CCN(c2nsc3ccccc23)CC1)c1cccs1", "unit-annotation": "nM", "value-modifier": "=", "Ki": 56}
{"mol": "O=S(=O)(NCCCN1CCN(c2noc3ccccc23)CC1)c1cc2ccccc2s1", "unit-annotation": "nM", "value-modifier": "=", "Ki": 15}
{"mol": "Cc1c(S(=O)(=O)NCCCN2CCN(c3noc4ccccc34)CC2)sc2ccc(F)cc12", "unit-annotation": "nM", "value-modifier": ">", "Ki": 10000}

----------
system-under-test: 5-hydroxytryptamine receptor 2A (Homo sapiens)
Sequence (P28223 whole entry): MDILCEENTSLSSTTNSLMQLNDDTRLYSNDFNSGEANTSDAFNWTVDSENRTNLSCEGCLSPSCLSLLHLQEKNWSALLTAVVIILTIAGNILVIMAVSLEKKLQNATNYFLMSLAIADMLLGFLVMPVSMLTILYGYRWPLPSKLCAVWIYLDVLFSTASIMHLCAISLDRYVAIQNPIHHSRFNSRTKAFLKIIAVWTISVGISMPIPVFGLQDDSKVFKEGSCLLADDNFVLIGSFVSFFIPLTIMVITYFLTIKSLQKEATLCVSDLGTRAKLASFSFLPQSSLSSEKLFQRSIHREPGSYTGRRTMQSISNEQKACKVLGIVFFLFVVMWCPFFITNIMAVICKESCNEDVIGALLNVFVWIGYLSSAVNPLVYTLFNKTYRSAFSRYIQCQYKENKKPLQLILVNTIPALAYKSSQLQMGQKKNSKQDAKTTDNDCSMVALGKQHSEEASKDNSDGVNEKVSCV
assay-comment: biochemical
Format: cell-based, CHO-K1
pKi: −log10 of the molar value.
Assign class by pKi: not lower than 8 means Criterion met; lower than 8 means Criterion not met.

{"mol": "O=S(=O)(NCCCN1CCC(c2noc3cc(F)ccc23)CC1)c1cccs1", "group-label": "Criterion met"}
{"mol": "O=S(=O)(NCCCCN1CCN(c2noc3ccccc23)CC1)c1ccc2ccccc2c1", "group-label": "Criterion met"}
{"mol": "O=S(=O)(NCCCCN1CCN(c2noc3ccccc23)CC1)c1cccc2scnc12", "group-label": "Criterion not met"}
{"mol": "Cc1cccc(S(=O)(=O)NCCN2CCC(c3noc4cc(F)ccc34)CC2)c1", "group-label": "Criterion met"}
{"mol": "O=S(=O)(NCCCN1CCC(c2noc3cc(F)ccc23)CC1)c1ccc(Cl)c(Cl)c1", "group-label": "Criterion met"}
{"mol": "O=S(=O)(NCCCN1CCN(c2noc3ccccc23)CC1)c1cccs1", "group-label": "Criterion not met"}
{"mol": "O=S(=O)(NCCCN1CCC(c2noc3cc(F)ccc23)CC1)c1ccc2cc(Cl)ccc2c1", "group-label": "Criterion met"}
{"mol": "O=S(=O)(NCCCCN1CCN(c2nsc3ccccc23)CC1)c1ccc2ccccc2c1", "group-label": "Criterion met"}
{"mol": "Cc1cccc(S(=O)(=O)NCCCCN2CCN(c3nsc4ccccc34)CC2)c1", "group-label": "Criterion met"}
